reported_metric: melting point

[
  {
    "molecule": "N#CCCSC(=S)NCc1nccs1",
    "result": "76 to 78 °C"
  },
  {
    "molecule": "N#CCCSC(=S)NCc1nnc(-c2ccccc2)s1",
    "result": "156 to 158 °C"
  },
  {
    "molecule": "C[S+]([O-])CCSC(=S)NCc1ccco1 (stereo not shown)",
    "result": "43 to 45 °C"
  },
  {
    "molecule": "COc1cncc(CNC(=S)SCCC#N)c1",
    "result": "86 to 90 °C"
  },
  {
    "molecule": "OB(O)CCSC(=S)NCc1cccnc1",
    "result": "49 to 50 °C"
  },
  {
    "molecule": "CC1=CSC(=S)N(Cc2cccnc2)C1(C)O (stereo not shown)",
    "result": "71 to 72 °C"
  },
  {
    "molecule": "COC(=O)CCSC(=S)NCc1ccco1",
    "result": "50 to 52 °C"
  },
  {
    "molecule": "N#CCCSC(=S)NCc1cnc(N2CCOCC2)nc1",
    "result": "151 to 154 °C"
  },
  {
    "molecule": "N#CCCSC(=S)NCc1ccc(-c2ccco2)nc1",
    "result": "118 to 120 °C"
  },
  {
    "molecule": "N#CCCSC(=S)NCc1cncc(Br)c1",
    "result": "102 to 108 °C"
  },
  {
    "molecule": "OC1CCSC(=S)N1Cc1ccco1 (stereo not shown)",
    "result": "42 to 43 °C"
  },
  {
    "molecule": "COc1ccc(CNC(=S)SCCC#N)cn1",
    "result": "90 to 92 °C"
  },
  {
    "molecule": "[O-][S+](CCSC(=S)NCc1ccco1)Cc1ccccc1 (stereo not shown)",
    "result": "51 to 52 °C"
  },
  {
    "molecule": "N#CCCSC(=S)NCCCc1cccnc1",
    "result": "81 to 83 °C"
  },
  {
    "molecule": "Cc1nc(-c2ccccc2)oc1CNC(=S)SCCC#N",
    "result": "221 to 224 °C"
  },
  {
    "molecule": "N#CCCSC(=S)NCc1cnccn1",
    "result": "96 to 99 °C"
  },
  {
    "molecule": "N#CCCSC(=S)NCc1nnc(-c2ccccc2)o1",
    "result": "148 to 152 °C"
  },
  {
    "molecule": "N#CCCSC(=S)NCc1cnc2ccccc2c1",
    "result": "120 to 122 °C"
  },
  {
    "molecule": "N#CCCSC(=S)NCc1cncnc1",
    "result": "168 to 171 °C"
  },
  {
    "molecule": "OC1CCSC(=S)N1Cc1cccnc1 (stereo not shown)",
    "result": "56 to 57 °C"
  },
  {
    "molecule": "Cc1cc(C)c(CNC(=S)SCCC#N)cn1",
    "result": "138 to 142 °C"
  },
  {
    "molecule": "N#CCCSC(=S)NCc1cccnc1",
    "result": "58 to 60 °C"
  }
]

---

System: human leukaemia HL-60 cells
protocol_summary: EC50 on proliferation of HL-60 cells (MTT, 48 h)
Format: cell-based
run_parameters: read-out: HL-60 EC50 (nmol)
EC50 values by entry
reported_metric: EC50

[
  {
    "compound": "Cc1cc(C)c(CNC(=S)SCCC#N)cn1",
    "target": "human leukaemia HL-60 cells",
    "result": "1.72 nM"
  },
  {
    "compound": "N#CCCSC(=S)NCc1cncc(Br)c1",
    "target": "human leukaemia HL-60 cells",
    "result": "4.91 nM"
  },
  {
    "compound": "N#CCCSC(=S)NCc1nnc(-c2ccccc2)s1",
    "target": "human leukaemia HL-60 cells",
    "result": "11.8 nM"
  },
  {
    "compound": "N#CCCSC(=S)Nc1cccnc1 [Compound 30, 2-cyanoethyl pyridin-3-yldithiocarbamate]",
    "target": "human leukaemia HL-60 cells",
    "result": "80.7 nM"
  },
  {
    "compound": "Cc1cc(CNC(=S)SCCC#N)n(C)n1",
    "target": "human leukaemia HL-60 cells",
    "result": "4.17 nM"
  },
  {
    "compound": "CC(C)(C)C(=O)Nc1ccncc1CNC(=S)SCCC#N",
    "target": "human leukaemia HL-60 cells",
    "result": "0.473 nM"
  },
  {
    "compound": "N#CCCSC(=S)NCc1nnc(-c2ccccc2)o1",
    "target": "human leukaemia HL-60 cells",
    "result": "14.2 nM"
  },
  {
    "compound": "CN(Cc1cccnc1)C(=S)SCCC#N",
    "target": "human leukaemia HL-60 cells",
    "result": "134 nM"
  },
  {
    "compound": "N#CCCSC(=S)NCc1cnc2ccccc2c1",
    "target": "human leukaemia HL-60 cells",
    "result": "5.18 nM"
  },
  {
    "compound": "COC(=O)c1ccc(CNC(=S)SCCC#N)cn1",
    "target": "human leukaemia HL-60 cells",
    "result": "6.93 nM"
  }
]
